target: Ba/F3 cells CD74-ROS1 wild-type (wt) (Homo sapiens, UniProt P08922); construct: fusion of the C-terminus of ROS1 with the N-terminus of various partner proteins; the other entry of the earlier key: CD74 (P04233, HLA class II histocompatibility antigen gamma chain); assay: Ba/F3 cell proliferation assay, CD74-ROS1 wild-type; conditions: 72 hours, CellTiter-Glo
Sequence (P08922 1883-2347 limits assumed): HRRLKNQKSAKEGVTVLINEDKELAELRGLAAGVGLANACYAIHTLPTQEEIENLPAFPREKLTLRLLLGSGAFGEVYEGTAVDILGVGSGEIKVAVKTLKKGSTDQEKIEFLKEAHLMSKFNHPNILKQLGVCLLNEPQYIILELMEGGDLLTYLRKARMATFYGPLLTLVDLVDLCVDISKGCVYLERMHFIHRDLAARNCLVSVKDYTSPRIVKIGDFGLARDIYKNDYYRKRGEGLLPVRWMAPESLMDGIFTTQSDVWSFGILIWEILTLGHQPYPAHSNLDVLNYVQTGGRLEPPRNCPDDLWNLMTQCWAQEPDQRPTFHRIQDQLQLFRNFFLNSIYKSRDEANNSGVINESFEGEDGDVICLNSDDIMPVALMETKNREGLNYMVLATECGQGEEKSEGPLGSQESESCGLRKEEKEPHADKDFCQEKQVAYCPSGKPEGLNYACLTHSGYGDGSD
pIC50: −log10 of the molar value.
MEASUREMENT NAME: pIC50

C[C@H]1Oc2cc(cnc2N)-c2c(cnn2CC2CC2)Cn2ncnc2-c2ccc(F)cc21	7.30 to 10.00
C[C@H]1Oc2cc(cnc2N)-c2c(cnn2CC(F)F)Cc2ncc(F)cc2-c2ccc(F)cc21	7.30 to 10.00

Each of the following entries comes with a recorded value; kindly state pIC50 for each.
1. CCc1noc2c1-c1cnc(N)c(c1)O[C@H](C)c1cc(F)ccc1-c1cn(C)nc1C2
2. C[C@H]1Oc2cc(cnc2N)-c2c(cnn2CC2CC2)Cc2ncc(F)cc2-c2ccc(F)cc21
3. C[C@H]1Oc2cc(cnc2N)-c2c(cnn2C(F)F)Cn2nccc2-c2ccc(F)cc21
4. Cc1nn(CC(C)C)c2c1Cn1ncnc1-c1ccc(F)cc1[C@@H](C)Oc1cc-2cnc1N

["7.30 to 10.00", "7.30 to 10.00", "7.30 to 10.00", "7.30 to 10.00"]

----------
target: Ba/F3 cells EML4-ALK L1196M/G1202R (variant 1) (Homo sapiens, UniProt Q9UM73, G1202R/L1196M); construct: echinoderm microtubule-associated protein-like 4 (EML4) gene and the ALK tyrosine kinase domain; the other entry of the earlier key: EML4 (Q9HC35, Echinoderm microtubule-associated protein-like 4); experiment: Ba/F3 cell proliferation assay, EML4-ALK L1196M/G1202R (variant 1); details: 72 hours, CellTiter-Glo
Sequence (Q9UM73 with tags, fused parts or gaps L1196M/G1202R): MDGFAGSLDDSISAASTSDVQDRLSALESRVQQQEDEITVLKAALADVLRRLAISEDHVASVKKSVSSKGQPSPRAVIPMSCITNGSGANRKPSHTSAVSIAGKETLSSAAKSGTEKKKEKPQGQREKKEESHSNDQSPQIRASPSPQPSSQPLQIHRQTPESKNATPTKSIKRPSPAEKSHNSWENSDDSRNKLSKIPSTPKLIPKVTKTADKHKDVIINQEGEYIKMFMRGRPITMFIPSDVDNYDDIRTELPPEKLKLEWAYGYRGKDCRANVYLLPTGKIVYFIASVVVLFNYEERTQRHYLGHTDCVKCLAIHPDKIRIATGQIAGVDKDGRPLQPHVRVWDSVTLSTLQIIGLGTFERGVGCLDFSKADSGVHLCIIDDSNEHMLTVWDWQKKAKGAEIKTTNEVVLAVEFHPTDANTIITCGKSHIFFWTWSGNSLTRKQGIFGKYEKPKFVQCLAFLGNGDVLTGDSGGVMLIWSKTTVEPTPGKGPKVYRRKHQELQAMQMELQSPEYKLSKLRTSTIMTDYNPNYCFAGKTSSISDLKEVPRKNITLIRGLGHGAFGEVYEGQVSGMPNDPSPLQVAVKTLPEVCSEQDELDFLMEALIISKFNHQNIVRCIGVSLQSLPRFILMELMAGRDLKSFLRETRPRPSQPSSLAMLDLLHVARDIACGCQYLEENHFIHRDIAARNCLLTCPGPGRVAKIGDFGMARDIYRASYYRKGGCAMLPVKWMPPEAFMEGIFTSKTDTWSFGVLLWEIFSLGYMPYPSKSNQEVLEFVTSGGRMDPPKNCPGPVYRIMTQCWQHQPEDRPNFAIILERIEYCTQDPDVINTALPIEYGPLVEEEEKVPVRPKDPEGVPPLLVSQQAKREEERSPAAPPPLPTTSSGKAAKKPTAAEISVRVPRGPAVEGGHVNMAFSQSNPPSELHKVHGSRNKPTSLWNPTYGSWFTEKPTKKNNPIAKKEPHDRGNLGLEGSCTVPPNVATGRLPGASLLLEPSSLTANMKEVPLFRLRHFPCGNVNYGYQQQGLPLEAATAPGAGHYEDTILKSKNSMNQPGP
MEASUREMENT NAME: IC50

Each of the following entries comes with a recorded value; kindly state IC50 for each.
1. Cc1cc2n(n1)Cc1cnn(CCF)c1-c1cnc(N)c(c1)O[C@H](C)c1cc(F)ccc1-2
2. CCn1ncc2c1-c1cnc(N)c(c1)O[C@H](C)c1cc(F)ccc1-c1nccnc1C2
3. Cc1nn(CC2CC2)c2c1Cc1nn(C)nc1-c1ccc(F)cc1[C@@H](CO)Oc1cc-2cnc1N

1: 50 to 500 nM; 2: 0.1 to 50 nM; 3: 50 to 500 nM

Each of the following entries comes with a recorded value; kindly state IC50 for each.
1. Cc1nn(CC2CC2)c2c1Cc1nn(C)nc1-c1ccc(F)cc1[C@@H](C)Oc1cc-2cnc1N
2. C[C@H]1Oc2cc(cnc2N)-c2c(cnn2C2CCC2)Cc2nn(C)nc2-c2ccc(F)cc21
3. CCn1ncc2c1-c1cnc(N)c(c1)O[C@H](C)c1cc(F)ccc1-c1nc(C)nn1C2
4. Cc1nc2c(o1)-c1ccc(F)cc1C(C)Oc1cc(cnc1N)-c1c(c(Cl)nn1CC1CC1)C2 (centres unmarked)
5. CCc1noc2c1-c1cnc(N)c(c1)O[C@H](C)c1cc(F)ccc1-c1ccnn1C2
6. CCn1nnc2c1-c1cnc(N)c(c1)O[C@H](C)c1cc(F)ccc1-c1scnc1C2
7. CCn1ncc2c1-c1cnc(N)c(c1)O[C@H](C)c1cc(F)ccc1-c1cc(OC)nn1C2

["0.1 to 50 nM", "0.1 to 50 nM", "50 to 500 nM", "50 to 500 nM", "50 to 500 nM", "50 to 500 nM", "50 to 500 nM"]

----------
target: Ba/F3 cells CD74-ROS1 G2032R (Homo sapiens, UniProt P08922, G2032R); construct: fusion of the C-terminus of ROS1 with the N-terminus of various partner proteins; the other entry of the earlier key: CD74 (P04233, HLA class II histocompatibility antigen gamma chain); assay: Ba/F3 cell proliferation assay, CD74-ROS1 G2032R; conditions: 72 hours, CellTiter-Glo
Sequence (P08922 1883-2347 G2032R limits assumed): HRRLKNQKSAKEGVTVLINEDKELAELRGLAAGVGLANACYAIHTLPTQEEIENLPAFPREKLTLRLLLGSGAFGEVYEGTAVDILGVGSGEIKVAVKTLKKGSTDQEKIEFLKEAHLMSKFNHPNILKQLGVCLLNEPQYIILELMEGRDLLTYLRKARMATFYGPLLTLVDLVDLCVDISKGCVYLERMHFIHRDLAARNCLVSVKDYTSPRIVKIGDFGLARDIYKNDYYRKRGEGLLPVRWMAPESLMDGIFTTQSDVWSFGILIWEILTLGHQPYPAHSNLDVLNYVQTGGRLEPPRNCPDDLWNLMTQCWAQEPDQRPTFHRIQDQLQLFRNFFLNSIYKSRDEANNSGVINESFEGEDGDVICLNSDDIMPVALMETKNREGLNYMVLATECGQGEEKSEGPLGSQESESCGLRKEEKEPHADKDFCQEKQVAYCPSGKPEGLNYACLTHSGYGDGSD
pIC50: −log10 of the molar value.
Record form. Attribute: pIC50. Fill in for each entry.

Before answering, review these 3 worked examples.
C[C@H]1Oc2cc(cnc2N)-c2c(C#N)ncn2Cc2nccnc2-c2ccc(F)cc21	7.30 to 10.00
CCc1noc2c1-c1cnc(N)c(c1)O[C@H](C)c1cc(F)ccc1-c1cn(C)nc1C2	7.30 to 10.00
C[C@H]1Oc2cc(cnc2N)-c2c(nnn2CC2CC2)Cc2nn(C)nc2-c2ccc(F)cc21	7.30 to 10.00

Each of the following entries comes with a recorded value; kindly state pIC50 for each.
1. Cc1nn(CC(C)C)c2c1Cn1ncnc1-c1ccc(F)cc1[C@@H](C)Oc1cc-2cnc1N
2. C[C@H]1Oc2cc(cnc2N)-c2c(C#N)ncn2Cc2ncncc2-c2ccc(F)cc21
3. Cc1nn(CC2CC2)c2c1Cn1ncnc1-c1ccc(F)cc1[C@@H](C)Oc1cc-2cnc1N
4. Cc1nn(CC2CC2)c2c1Cn1nc(Cl)cc1-c1ccc(F)cc1[C@@H](C)Oc1cc-2cnc1N
5. CCn1ncc2c1-c1cnc(N)c(c1)O[C@H](C)c1cc(F)ccc1-c1oc(C)nc1C2

["< 6.30", "6.30 to 7.30", "7.30 to 10.00", "7.30 to 10.00", "7.30 to 10.00"]

----------
pKi: −log10 of the molar value.
System: ROS1-wt (Homo sapiens) | Read-out: pKi

CCn1nnc2c1-c1cnc(N)c(c1)O[C@H](C)c1cc(F)ccc1-c1scnc1C2	> 7.30
C[C@H]1Oc2cc(cnc2N)-c2c(cnn2C2CCC2)Cn2nncc2-c2ccc(F)cc21	> 7.30

Each of the following entries comes with a recorded value; kindly state pKi for each.
1. C[C@H]1Oc2cc(cnc2N)-c2c(cnn2CC2CC2)Cc2nn(C)nc2-c2ccc(F)cc21
2. CCn1ncc2c1-c1cnc(N)c(c1)O[C@H](C)c1cc(F)ccc1-c1cc(C)nn1C2
3. CCn1ncc2c1-c1cnc(N)c(c1)O[C@H](C)c1cc(F)ccc1-c1cc(Cl)nn1C2
4. CCc1noc2c1-c1cnc(N)c(c1)O[C@H](C)c1cc(F)ccc1-c1nnnn1C2
5. CCn1ncc2c1-c1cnc(N)c(c1)O[C@H](C)c1cc(F)ccc1-n1ncnc1C2
6. CCn1nc(Cl)c2c1-c1cnc(N)c(c1)O[C@H](C)c1cc(F)ccc1-c1nn(C)nc1C2
7. C[C@H]1Oc2cc(cnc2N)-c2c(C#N)cnn2Cc2ncsc2-c2ccc(F)cc21
8. C[C@H]1Oc2cc(cnc2N)-c2c(nnn2CC2CC2)Cc2nn(C)nc2-c2ccc(F)cc21

> 7.30
> 7.30
> 7.30
> 7.30
> 7.30
> 7.30
> 7.30
> 7.30

----------
Record form. Attribute: pKi. Fill in for each entry.
target: ROS1-wt (Homo sapiens, UniProt P08922)
pKi: −log10 of the molar value.

Before answering, review these 3 worked examples.
CCc1nsc2c1-c1cnc(N)c(c1)O[C@H](C)c1cc(F)ccc1-c1ncnn1C2	> 7.30
Cc1nn(CC(C)C)c2c1Cn1ncnc1-c1ccc(F)cc1[C@@H](C)Oc1cc-2cnc1N	> 7.30
CCn1ncc2c1-c1cnc(N)c(c1)O[C@H](C)c1cc(F)ccc1-c1nc(C)nn1C2	> 7.30

Input "C[C@H]1Oc2cc(cnc2N)-c2c(cnn2CC2CC2)Cn2ncnc2-c2ccc(F)cc21" . Output pKi: > 7.30

----------
target: ALK L1196M/G1202R (Homo sapiens, UniProt Q9UM73, G1202R/L1196M); construct: purchased SignalChem A19-12NG; test: Biochemical kinase assay, ALK L1196M/G1202R kinase domain; conditions: apparent inhibitory constant, Morrison equation; ATP 2 mM in substrate solution; read-out: ALK-L1196M-G1202R Ki^app
MEASUREMENT NAME: Ki

CCn1nc(C)c2c1-c1cnc(N)c(c1)O[C@H](C)c1cc(F)ccc1-c1nn(C)nc1C2	< 50 nM
CCn1nc2c(n1)-c1ccc(F)cc1[C@@H](C)Oc1cc(cnc1N)-c1c(cnn1CC)C2	< 50 nM
CCn1ncc2c1-c1cnc(N)c(c1)O[C@H](C)c1cc(F)ccc1-c1nc(C)nn1C2	< 50 nM
Cc1nc2c(o1)-c1ccc(F)cc1[C@@H](C)Oc1cc(cnc1N)-c1c(cnn1CC1CC1)C2	< 50 nM
CCn1ncc2c1-c1cnc(N)c(c1)OC(C)c1cc(F)ccc1-c1cccnc1C2 (stereo not shown)	< 50 nM
Cc1nn(CC(C)C)c2c1Cn1ncnc1-c1ccc(F)cc1[C@@H](C)Oc1cc-2cnc1N	50 to 500 nM

Each of the following entries comes with a recorded value; kindly state Ki for each.
1. C[C@H]1Oc2cc(cnc2N)-c2c(C3CCC3)noc2Cn2ncnc2-c2ccc(F)cc21
2. CCn1ncc2c1-c1cnc(N)c(c1)O[C@H](C)c1cc(F)ccc1-c1ccnn1C2
3. C[C@H]1Oc2cc(cnc2N)-c2c(CC3CC3)noc2Cc2nn(C)nc2-c2ccc(F)cc21
4. C[C@H]1Oc2cc(cnc2N)-c2c(C#N)cnn2Cc2ncsc2-c2ccc(F)cc21

< 50 nM
< 50 nM
< 50 nM
50 to 500 nM

Each of the following entries comes with a recorded value; kindly state Ki for each.
1. CCn1ncc2c1-c1cnc(N)c(c1)O[C@H](C)c1cc(F)ccc1-n1ccnc1C2
2. CCc1noc2c1-c1cnc(N)c(c1)O[C@H](C)c1cc(F)ccc1-c1ccnn1C2

1: < 50 nM; 2: < 50 nM

Each of the following entries comes with a recorded value; kindly state Ki for each.
1. CCn1ncc2c1-c1cnc(N)c(c1)O[C@H](C)c1cc(F)ccc1-c1c(C#N)cnn1C2
2. CCn1nc(C(F)(F)F)c2c1-c1cnc(N)c(c1)O[C@H](C)c1cc(F)ccc1-c1nn(C)nc1C2
3. CCn1ncc2c1-c1cnc(N)c(c1)O[C@H](C)c1cc(F)ccc1-c1c(F)cnn1C2
4. C[C@H]1Oc2cc(cnc2N)-c2c(C#N)cnn2Cc2nccnc2-c2ccc(F)cc21

["< 50 nM", "50 to 500 nM", "< 50 nM", "50 to 500 nM"]
